test: PP-LFER solute descriptor determination from GC retention and partition coefficient data; format: physicochemical; conditions: final adjusted value; shared within a PFAS group
Readout Name: Solute descriptor S (dipolarity/polarizability parameter)

Molecule | Readout Value
OCCC(F)(F)C(F)(F)C(F)(F)C(F)(F)C(F)(F)C(F)(F)C(F)(F)C(F)(F)C(F)(F)C(F)(F)F [10:2 FTOH, 1H,1H,2H,2H-Perfluorododecan-1-ol] | 0.35
FC(F)(F)C(F)(F)C(F)(F)C(F)(F)C(F)(F)C(F)(F)C(F)(F)C(F)(F)C(F)(F)C(F)(F)C(F)(F)C(F)(F)F [PFDoD, Perfluorododecane] | -0.19
FC(OC(F)(F)C(F)(OC(F)(F)C(F)(OC(F)(F)C(F)(F)C(F)(F)F)C(F)(F)F)C(F)(F)F)C(F)(F)F (stereo not drawn) [FE-E3] | -0.33
